Biological target: T1, Histidine-tagged human CD40 protein (hCD40-His) (human, UniProt P25942 21-193)
T1 construct: not shown: histidine tag
T1 sequence (P25942 21-193 limits assumed): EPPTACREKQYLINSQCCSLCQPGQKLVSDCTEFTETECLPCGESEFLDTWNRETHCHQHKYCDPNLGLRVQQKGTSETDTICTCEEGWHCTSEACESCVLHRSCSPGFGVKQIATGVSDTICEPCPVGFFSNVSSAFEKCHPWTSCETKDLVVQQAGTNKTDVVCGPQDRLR
Experiment: SPR, Biacore T200; antibody on Protein A chip, hCD40-His injected; 1:1 fit
Protocol: The binding affinity of the anti-hCD40 antibodies were measured using surface plasmon resonance (SPR) using Biacore (Biacore, INC, Piscataway N.J.) T200 biosensor equipped with pre-immobilized Protein A sensor chips. Anti-hCD40 antibodies were collected by transfecting CHO-S cells and then purified. […] Dissociation was monitored for 300 seconds. […]
Catalogue of pKd readings, one per entry.
When answering, recall that pKd equals minus log10 of the concentration in mol/L, and write that number alone.

Below, 2 binders whose answers are already recorded.
binder	pKd
4H6-H4K3-IgG4 (antibody, V domains shown, Humanized) VH: EVQLQESGPGLVKPSQTLSLTCTVSGDSVSSGYWNWIRKFPGKKLEYMGFISYSGSTYYTPSLKSRITISRDTSKNQFSLKLSSVTAADTAVYFCARFRRYDDGVDYWGQGTLVTVSS VL: DIQMTQSPSAMSASVGDRVTITCRASHEISGYLSWIQQKPGGTIKRLINAASTLASGVPSRFSGSRSGTEYTLTISSLQPEDFADYYCLQYSSYPWTFGGGTKLEIK	7.10
4H6-H4K4-IgG4 (antibody, V domains shown, Humanized) VH: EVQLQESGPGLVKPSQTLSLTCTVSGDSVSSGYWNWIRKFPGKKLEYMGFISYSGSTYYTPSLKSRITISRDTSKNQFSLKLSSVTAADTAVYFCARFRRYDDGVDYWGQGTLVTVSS VL: DIQMTQSPSAMSASVGDRVTLTCRASHEISGYLSWIQQKPGGTIKRLINAASTLASGVPSRFSGSRSGTEYTLTISSLQPEDFADYYCLQYSSYPWTFGGGTKLEIK	7.05

# input for lookup
Return pKd (reported value) for this binder: 4H6-H3K4-IgG4 (antibody, V domains shown, Humanized) VH: EVQLQESGPGLVKPSQTLSLTCTVSGDSVSSGYWNWIRKHPGKKLEYMGFISYSGSTYYTPSLKSRITISRDTSKNQFSLKLSSVTAADTAVYFCARFRRYDDGVDYWGQGTLVTVSS VL: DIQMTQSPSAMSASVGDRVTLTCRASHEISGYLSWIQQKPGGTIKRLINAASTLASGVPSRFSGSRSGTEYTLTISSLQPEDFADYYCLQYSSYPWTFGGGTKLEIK
7.02
